Sourced from paper PMC11052077

Entries and their Cell Viability (100%), 20 μM, 48 h, hepG2 values follow.
Test system: hepG2 cells
Assay: CCK8 cell viability assay, hepG2
Format: cell-based, human
Conditions: 20 μM, hepG2, CCK8, control taken as 100%
Write the number in % without appending the unit.

// known answers, use as guide
> print(dat)
                                   compound  number
1  COc1c2n(cc(C(=O)Nc3cccc(-c4cn(-c5cc(C(F)(F)F)cc(C(F)(F)F)c5)nn4)c3)c1=O)CC1OCCC(C)N1C2=O (stereo not shown)   78.52
2  COc1c2n(cc(C(=O)Nc3cccc(-c4cn(-c5cccc(C)c5)nn4)c3)c1=O)CC1OCCC(C)N1C2=O (stereo not shown)   12.96
3  COc1c2n(cc(C(=O)Nc3cccc(-c4cn(Cc5cccc(Br)c5)nn4)c3)c1=O)CC1OCCC(C)N1C2=O (stereo not shown)   55.14
4  COc1c2n(cc(C(=O)Nc3cccc(-c4cn(-c5ccc(C(F)(F)F)cc5)nn4)c3)c1=O)CC1OCCC(C)N1C2=O (stereo not shown)   79.96
5  COc1c2n(cc(C(=O)Nc3cccc(-c4cn(-c5c(C)cc(C)cc5C)nn4)c3)c1=O)CC1OCCC(C)N1C2=O (stereo not shown)   63.22

Recorded Cell Viability (100%), 20 μM, 48 h, hepG2 of COc1c2n(cc(C(=O)Nc3cccc(-c4cn(-c5cccc(C(F)(F)F)c5)nn4)c3)c1=O)CC1OCCC(C)N1C2=O (stereo not shown) , please.
30.66

Same read-out for COc1c2n(cc(C(=O)Nc3cccc(-c4cn(-c5ccccc5F)nn4)c3)c1=O)CC1OCCC(C)N1C2=O (stereo not shown) ?
90.43
